These entries and their values trace back to patent US9102638B2.

Field: GI50. Provide a value for each of the compounds that follow.
Test system: TK-10
Assay: In vitro cytotoxicity, NCI screen: TK-10 (Renal)
Type: cell-based
Conditions: Homo sapiens; TK-10, Renal panel, NCI protocol; read-out: GI50 values (μM conc.)
Dear colleague, please return just the value in µM, with no unit written.

Enquiry: Field: GI50 (TK-10). Entry: COc1ccc(/C=C\c2cc(OC)c(OC)c(OC)c2)cc1OCC(=O)Nc1nc2ccc(OC(F)(F)F)cc2s1 [Compound 8j]
Return: 18.6

Enquiry: Field: GI50 (TK-10). Entry: COc1ccc2nc(NC(=O)COc3cc(/C=C\c4cc(OC)c(OC)c(OC)c4)ccc3OC)sc2c1 [Compound 8g]
Return: 7.54

Enquiry: Field: GI50 (TK-10). Entry: COc1ccc(/C=C\c2cc(OC)c(OC)c(OC)c2)cc1OCC(=O)Nc1nc2ccc(F)cc2s1 [Compound 8e]
Return: 9.89

Enquiry: Field: GI50 (TK-10). Entry: COc1ccc(C2CC(c3cc(OC)c(OC)c(OC)c3)=NN2C(C)=O)cc1OCC(=O)Nc1nc2ccc(C(F)(F)F)cc2s1 (stereo not drawn) [Compound 10i]
Return: 2.85

Enquiry: Field: GI50 (TK-10). Entry: COc1ccc(/C=C/C(=O)c2cc(OC)c(OC)c(OC)c2)cc1OCC(=O)Nc1nc2ccc(OC(F)(F)F)cc2s1 [Compound 9j]
Return: 2.08

Enquiry: Field: GI50 (TK-10). Entry: COc1ccc(/C=C\c2cc(OC)c(OC)c(OC)c2)cc1OCC(=O)Nc1nc2ccc(C(F)(F)F)cc2s1 [Compound 8i]
Return: 7.03
